# credit: ChEMBL document CHEMBL1152975

# TESTED_SYSTEM: Serine/threonine-protein kinase Sgk1 (Homo sapiens, UniProt O00141)
# Sequence (O00141 whole entry): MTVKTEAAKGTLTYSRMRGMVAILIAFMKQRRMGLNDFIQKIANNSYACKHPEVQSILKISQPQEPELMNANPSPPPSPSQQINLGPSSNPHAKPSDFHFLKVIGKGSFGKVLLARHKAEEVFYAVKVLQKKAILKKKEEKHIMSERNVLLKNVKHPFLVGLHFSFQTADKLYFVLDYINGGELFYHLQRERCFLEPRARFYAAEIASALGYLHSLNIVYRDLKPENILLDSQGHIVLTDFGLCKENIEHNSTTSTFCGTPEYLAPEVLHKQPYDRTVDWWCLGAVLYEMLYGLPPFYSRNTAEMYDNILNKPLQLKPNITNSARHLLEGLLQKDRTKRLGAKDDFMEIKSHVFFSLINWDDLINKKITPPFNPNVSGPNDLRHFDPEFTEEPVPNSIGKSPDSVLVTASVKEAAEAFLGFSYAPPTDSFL
# MEASUREMENT_NOTES: Inhibition of SGK1 by fluorescence polarization assay
For each of the compounds below, state its pIC50.
For clarity, pIC50 is expressed as the negative log10 of concentration in mol/L.

Fill blank: measured pIC50 of the compound CC(C(=O)O)c1ccc(-c2c[nH]c3ncc(-c4ccc5ccccc5c4)cc23)cc1 (stereo not given) is ____.
6.90

Would you kindly repeat that for CC(C)(C(=O)O)c1ccc(-c2c[nH]c3ncc(-c4ccccc4)cc23)cc1 ?
7.30

Would you kindly repeat that for CC(C)(C(=O)O)c1ccc(-c2c[nH]c3ncc(-c4cccc(C#N)c4)cc23)cc1 ?
7.40

Would you kindly repeat that for NCc1ccc(-c2c[nH]c3ncc(-c4ccccc4)cc23)cc1 ?
6.40

Would you kindly repeat that for CC(=O)c1ccc(-c2c[nH]c3ncc(-c4ccccc4)cc23)cc1 ?
5.30

* * *

# TESTED_SYSTEM: Serine/threonine-protein kinase Sgk1 (Homo sapiens, UniProt O00141)
# Sequence (O00141 whole entry): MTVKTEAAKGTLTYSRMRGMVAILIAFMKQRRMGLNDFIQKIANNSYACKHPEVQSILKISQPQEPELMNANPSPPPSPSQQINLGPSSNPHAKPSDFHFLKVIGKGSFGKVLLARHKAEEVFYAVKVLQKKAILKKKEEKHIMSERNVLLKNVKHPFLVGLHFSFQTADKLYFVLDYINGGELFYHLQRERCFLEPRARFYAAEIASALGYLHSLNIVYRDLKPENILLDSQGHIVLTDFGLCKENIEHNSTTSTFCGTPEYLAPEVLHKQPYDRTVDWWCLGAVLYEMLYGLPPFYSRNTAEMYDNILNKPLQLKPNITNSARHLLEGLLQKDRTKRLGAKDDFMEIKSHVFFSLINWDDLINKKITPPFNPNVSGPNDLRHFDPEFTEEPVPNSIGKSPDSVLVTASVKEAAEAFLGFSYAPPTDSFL
# MEASUREMENT_NOTES: Inhibition of SGK1-mediated epithelial sodium channel activity in human M-1 cells assessed as short circuit current by whole cell electrophysiological transepithelial experiment
# Type: cell-based
For each of the compounds below, state its IC50.
Give the value in nM but do not write nM after it.

Fill blank: measured IC50 of the compound O=C(O)c1ccc(-c2c[nH]c3ncc(-c4ccccc4)cc23)cc1 is ____.
1300

Would you kindly repeat that for CC(C)(C(=O)O)c1ccc(-c2c[nH]c3ncc(-c4ccc5ccccc5c4)cc23)cc1 ?
870

Would you kindly repeat that for CC(C)(C(=O)O)c1ccc(-c2c[nH]c3ncc(-c4ccccc4)cc23)cc1 ?
1460

Would you kindly repeat that for CC(C)Cc1cc(-c2c[nH]c3ncc(-c4ccccc4)cc23)ccc1C(=O)O ?
580

Would you kindly repeat that for O=C(O)Cc1ccc(-c2c[nH]c3ncc(-c4ccc5ccccc5c4)cc23)cc1 ?
880

Would you kindly repeat that for CC(C)(C(=O)O)c1ccc(-c2c[nH]c3ncc(-c4cccc(C#N)c4)cc23)cc1 ?
2000

Would you kindly repeat that for CCc1cc(-c2c[nH]c3ncc(-c4ccccc4)cc23)ccc1C(=O)O ?
710
